This listing pairs compounds with measured GI50.
- protocol text: Cytotoxicity against HEK293H cells after 24 hrs by CellTiter-Glo assay
- Type: cell-based
- measurement parameters: human

compound | GI50
CC1=C(C(=O)OCc2ccccc2)C(c2ccc(Cl)cc2Cl)NC(=O)N1CCCC(=O)OCC1CC1 (stereo unspecified) | > 100 µM
CC1=C(C(=O)OCc2ccccc2)C(c2ccc(Cl)cc2Cl)NC(=O)N1CCCC(=O)OCc1ccc2ccccc2n1 (stereo unspecified) | > 100 µM
COC(=O)CCCCN1C(=O)NC(c2ccc(Cl)cc2Cl)C(C(=O)OCc2ccccc2)=C1C (stereo unspecified) | > 100 µM
C/C=C/COC(=O)CCCN1C(=O)NC(c2ccc(Cl)cc2Cl)C(C(=O)OCc2ccccc2)=C1C (stereo unspecified) | > 100 µM
CC1=C(C(=O)OCc2ccccc2)C(c2ccc(Cl)cc2Cl)NC(=O)N1CCCC(=O)O (stereo unspecified) | > 300 µM
CC1=C(C(=O)OCc2ccccc2)C(c2ccc(Cl)cc2Cl)NC(=O)N1CCCC(=O)OCc1ccccc1F (stereo unspecified) | > 100 µM

###

- protocol text: Cytotoxicity against HEK293H cells assessed as cell viability at 100 uM after 24 hrs by CellTiter-Glo assay
- Type: cell-based
- measurement parameters: human

compound | Activity
C/C=C/COC(=O)CCCN1C(=O)NC(c2ccc(Cl)cc2Cl)C(C(=O)OCc2ccccc2)=C1C (stereo not given) | 70%
CC1=C(C(=O)OCc2ccccc2)C(c2ccc(Cl)cc2Cl)NC(=O)N1CCCC(=O)O (stereo not given) | 87%
COC(=O)CCCCN1C(=O)NC(c2ccc(Cl)cc2Cl)C(C(=O)OCc2ccccc2)=C1C (stereo not given) | 81%
CC1=C(C(=O)OCc2ccccc2)C(c2ccc(Cl)cc2Cl)NC(=O)N1CCCC(=O)OCCN1CCOCC1 (stereo not given) | 56%
CC1=C(C(=O)OCc2ccccc2)C(c2ccc(Cl)cc2Cl)NC(=O)N1CCCC(=O)OCC#N (stereo not given) | 69%

###

- System: MCF7
- protocol text: Cytotoxicity against human MCF7 cells after 24 hrs by CellTiter-Glo assay
- Format: cell-based
- measurement parameters: mcf7, 24 h
result type: GI50

molecule | tested on | result type | observed result
COC(=O)CCCN1C(=O)NC(c2ccc(Cl)cc2Cl)C(C(=O)OCc2ccccc2)=C1C (centres undefined) | MCF7 | GI50 | > 300 µM
CC1=C(C(=O)OCc2ccccc2)C(c2ccc(Cl)cc2Cl)NC(=O)N1CCCC(=O)OCCN1CCOCC1 (centres undefined) | MCF7 | GI50 | > 100 µM
CC1=C(C(=O)OCc2ccccc2)C(c2ccc(Cl)cc2Cl)NC(=O)N1CCCC(=O)OCc1ccccn1 (centres undefined) | MCF7 | GI50 | > 100 µM
C/C=C/COC(=O)CCCN1C(=O)NC(c2ccc(Cl)cc2Cl)C(C(=O)OCc2ccccc2)=C1C (centres undefined) | MCF7 | GI50 | > 100 µM
CC1=C(C(=O)OCc2ccccc2)C(c2ccc(Cl)cc2Cl)NC(=O)N1CCCC(=O)OCc1ccccc1 (centres undefined) | MCF7 | GI50 | > 100 µM
CC1=C(C(=O)OCc2ccccc2)C(c2ccc(Cl)cc2Cl)NC(=O)N1CCCCC(=O)O (centres undefined) | MCF7 | GI50 | > 100 µM
COC(=O)CCCCN1C(=O)NC(c2ccc(Cl)cc2Cl)C(C(=O)OCc2ccccc2)=C1C (centres undefined) | MCF7 | GI50 | > 100 µM
CC1=C(C(=O)OCc2ccccc2)C(c2ccc(Cl)cc2Cl)NC(=O)N1CCCC(=O)OCc1ccccc1F (centres undefined) | MCF7 | GI50 | > 100 µM
CC1=C(C(=O)OCc2ccccc2)C(c2ccc(Cl)cc2Cl)NC(=O)N1CCCC(=O)OCc1ccc2ccccc2n1 (centres undefined) | MCF7 | GI50 | > 100 µM
COCCOC(=O)CCCN1C(=O)NC(c2ccc(Cl)cc2Cl)C(C(=O)OCc2ccccc2)=C1C (centres undefined) | MCF7 | GI50 | > 100 µM
CC1=C(C(=O)OCc2ccccc2)C(c2ccc(Cl)cc2Cl)NC(=O)N1CCCC(=O)OCC#N (centres undefined) | MCF7 | GI50 | > 100 µM
CC1=C(C(=O)OCc2ccccc2)C(c2ccc(Cl)cc2Cl)NC(=O)N1CCCC(=O)OCC1CC1 (centres undefined) | MCF7 | GI50 | > 100 µM
CC1=C(C(=O)OCc2ccccc2)C(c2ccc(Cl)cc2Cl)NC(=O)N1CCCC(=O)O (centres undefined) | MCF7 | GI50 | > 300 µM
C/C=C(/C)C(=O)O[C@H]1C(C)=C2[C@H]([C@@H]1OC(=O)CCCCCCC)[C@@](C)(OC(C)=O)C[C@H](OC(=O)CCC)[C@@]1(O)[C@H]2OC(=O)[C@@]1(C)O | MCF7 | GI50 | 5 µM
